tested.target: T1, recombinant human OX40-his (Sino Biological, Cat#:10481-H03H) (human, UniProt P43489 29-214)
T1 construct: bought protein; also called hOX40-his; not shown: His tag
T1 sequence: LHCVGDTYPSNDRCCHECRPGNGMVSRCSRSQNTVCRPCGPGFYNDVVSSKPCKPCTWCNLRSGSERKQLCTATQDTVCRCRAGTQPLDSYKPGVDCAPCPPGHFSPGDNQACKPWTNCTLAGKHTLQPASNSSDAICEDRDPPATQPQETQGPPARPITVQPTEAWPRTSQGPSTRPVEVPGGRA
procedure.details: SPR Biacore 8K, OX40-His on chip, antibody injected
Attribute: koff
value.type: koff

[[record]]
binder = "68C8-VH2VL3 (antibody, human IgG1, kappa, V domains shown, humanized; also called 68C8-H2L3; 68C8H2L3) VH: QVQLVQSGAEVKKPGASVKVSCKVSGDTFTSYWITWVRQRPGKGLEWMGDIHPGSGSTNNNEKFKNRVTMTVDTSTDTAYMELSSLRSEDTAVYYCATLRPYYFVYWGQGTLVTVSS VL: DIQMTQSPSSLSASVGDRVTITCRASQDISNYLNWYQQKPGKTVKLLIYYTSRLLSGVPSRFSGSGSGTDYTLTISSLQPEDFATYFCQQGNTLPLTFGQGTRLEIKR"
experimental_result = "0.000927 s⁻¹"

[[record]]
binder = "68C8-VH3VL2 (antibody, human IgG1, kappa, V domains shown, humanized; also called 68C8-H3L2) VH: QVQLVQSGAEVKKPGASVKVSCKVSGDTFTSYWITWVRQRPGQGLEWIGDIHPGSGSTNNNEKFKNRVTLTVDTSTDTAYMELSSLRSEDTAVYYCATLRPYYFVYWGQGTLVTVSS VL: DIQMTQSPSSLSASVGDRVTITCRASQDISNYLNWYQQKPGKTPKLLIYYTSRLLSGVPSRFSGSGSGTDYTLTISSLQPEDFATYYCQQGNTLPLTFGQGTRLEIKR"
experimental_result = "0.00157 s⁻¹"

[[record]]
binder = "chimeric antibody 71H8 (antibody, human IgG1, kappa, V domains shown, mouse variable regions with human IgG1/kappa constant regions) VH: QVQLQQSGAELVKPGASVKMSCKASGYTFTSYWITWVKQRPGQGLEWIGDIYPGSGSTNQNEKFKSKATLTVDTSSSTAYMQLSSLTSEDSAVYYCAKLRPYYFVYWGQGTTLTVSS VL: DIQMTQTPSSLSASLGDRVTISCRASQDISNYLNWYQQKPDGTVKLLIYYTSRLLSGVPSRFSGSGSGTDYSLTISNLEQEDIATYFCQQGNTLPLTFGAGTKLELKR"
experimental_result = "8.28e-05 s⁻¹"


Reference for the values: patent US10442866
